target: chicken Estrogen Receptor (ESR1), ESR1 (gene 396099); assay: ATG_chERa_XSP1: Attagene TRANS-FACTORIAL Multi-Species (XSP1) HepG2 Assay for chicken Estrogen Receptor (ESR1) (AID 2283779)
Records with an inconclusive call do not appear. Active and inactive are the calls of the source. How the source made its calls: active means hit-call score of the fitted dose curve at least 0.9, where 1 is the maximum; inconclusive means response in the unintended direction; inactive means score below 0.9.
Measure: AC50

- Compound: "CC(C)(c1ccc(O)cc1)c1ccc(O)cc1"
  Assay target: "chicken Estrogen Receptor (ESR1), ESR1 (gene 396099)"
  AC50: "0.2 µM (active)"
- Compound: "C=CCOC(Cn1ccnc1)c1ccc(Cl)cc1Cl (stereo not drawn)"
  Assay target: "chicken Estrogen Receptor (ESR1), ESR1 (gene 396099)"
  AC50: "26.1 µM (active)"
- Compound: "Oc1ccc(C(c2ccc(O)cc2)C(Cl)(Cl)Cl)cc1"
  Assay target: "chicken Estrogen Receptor (ESR1), ESR1 (gene 396099)"
  AC50: "inactive"
- Compound: "CC(=O)S[C@@H]1CC2=CC(=O)CC[C@]2(C)[C@H]2CC[C@@]3(C)[C@@H](CC[C@@]34CCC(=O)O4)[C@H]12"
  Assay target: "chicken Estrogen Receptor (ESR1), ESR1 (gene 396099)"
  AC50: "inactive"

Data request: Param item = CC(C)CCCCCCc1ccc(O)cc1 ; retrieve measured AC50.
Data returned: 0.357 µM (active)

Data request: Param item = O=C(c1ccc(O)cc1O)c1ccc(O)cc1O ; retrieve measured AC50.
Data returned: 3.09 µM (active)

Data request: Param item = CCCCC(CC)COC(=O)c1ccccc1C(=O)O (stereo not drawn) ; retrieve measured AC50.
Data returned: 27.4 µM (active)

Data request: Param item = CC1(C)C(C=C(Cl)Cl)C1C(=O)OCc1cccc(Oc2ccccc2)c1 (stereo not drawn) ; retrieve measured AC50.
Data returned: inactive
